# credit: patent US20120237528A1

# Tested on: T1, recombinant extracellular domain (ECD) of human TF, amino acid 1-219 of the mature chain, C-terminal His6-tag (human, UniProt P13726 33-251)
# T1 construct: expressed in a mammalian system; used for ELISA and Biacore; biotinylated by NHS-ester for the Fab ELISA; also called His6-TF-ECD1-219; HumanTF1-219
# Assay procedure: Biacore
# kon listing for each entry below
Field format: number, assumed M⁻¹ s⁻¹, no unit text.

Here's what some known entries look like.
M1606 (antibody, V domains shown, complete MAb; FR4 is its own entry; also called H181/L3) VH: EVQLVQSGAEVKKPGESLRISCKGSGYTFIPHWIEWVRQMPGKGLEWMGDILPGSGWTNYSPSFQGHVTISADKSISTAYLQWSSLKASDTAMYYCARSGYYGNSGFAYWGQGTLVTVSS VL: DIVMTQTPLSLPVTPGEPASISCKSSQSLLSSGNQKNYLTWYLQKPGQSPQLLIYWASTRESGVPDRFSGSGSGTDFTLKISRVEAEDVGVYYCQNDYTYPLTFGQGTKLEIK | 166000
M1605 (antibody, V domains shown, complete MAb; FR4 is its own entry; also called H168/L3) VH: EVQLVQSGAEVKKPGESLRISCKGSGYTFGTYWIEWVRQMPGKGLEWMGDILPGTGHTTYSPSFQGHVTISADKSISTAYLQWSSLKASDTAMYYCARSGYYGNSGFAYWGQGTLVTVSS VL: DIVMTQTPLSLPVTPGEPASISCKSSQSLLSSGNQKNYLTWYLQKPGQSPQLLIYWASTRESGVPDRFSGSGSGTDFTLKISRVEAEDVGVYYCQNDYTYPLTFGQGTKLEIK | 135000
M1585 (antibody, V domains shown, complete MAb; FR4 is its own entry; also called H139/L3) VH: EVQLVQSGAEVKKPGESLRISCKGSGYTFSPFWIEWVRQMPGKGLEWMGDIIPGTGYTNYSPSFQGHVTISADKSISTAYLQWSSLKASDTAMYYCARSGYYGNSGFAYWGQGTLVTVSS VL: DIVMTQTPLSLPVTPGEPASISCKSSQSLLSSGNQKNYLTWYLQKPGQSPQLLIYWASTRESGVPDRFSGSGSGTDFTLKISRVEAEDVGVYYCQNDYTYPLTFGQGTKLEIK | 185000
M1596 (antibody, V domains shown, complete MAb; FR4 is its own entry; also called H185/L3) VH: EVQLVQSGAEVKKPGESLRISCKGSGYTFTPYWIEWVRQMPGKGLEWMGDILPGSGHTTYSPSFQGHVTISADKSISTAYLQWSSLKASDTAMYYCARSGYYGNSGFAYWGQGTLVTVSS VL: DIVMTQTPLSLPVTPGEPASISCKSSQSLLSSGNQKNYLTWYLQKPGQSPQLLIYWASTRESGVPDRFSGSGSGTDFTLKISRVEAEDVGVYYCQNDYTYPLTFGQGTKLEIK | 131000

Now consider the entry below.
Request: Suppose we examine the binder M26 (antibody, V domains shown, complete MAb; FR4 is its own entry; also called H17/L5) VH: QVQLVQSGAEVKKPGASVKVSCKASGYTFITYWIEWVRQAPGQRLEWMGDILPGSGSTNYNENFKGRVTITRDTSASTAYMELSSLRSEDTAVYYCARSGYYGNSGFAYWGQGTLVTVSS VL: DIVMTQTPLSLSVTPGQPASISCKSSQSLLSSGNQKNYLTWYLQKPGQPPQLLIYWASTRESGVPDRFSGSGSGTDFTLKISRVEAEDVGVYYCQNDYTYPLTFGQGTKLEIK ; what kon value has been reported?
Response: 82600
